Data origin, for the record: paper PMC3281842

- experimental_system: T1, SMN construct covering only the Tudor domain (residues 82–147) (human, UniProt Q16637 82-147)
- T1 construct: Survival motor neuron protein (SMN), human, residues 82-147, only the Tudor domain; also called SMN Tudor domain; source: E. coli BL21 (DE3), purified (Ni-NTA, size exclusion chromatography)
- T1 sequence (Q16637 82-147): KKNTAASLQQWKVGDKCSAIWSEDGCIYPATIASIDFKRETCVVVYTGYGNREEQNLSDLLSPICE
- protocol_details: fluorescence polarisation; fluorescein-labeled peptides; 20 mM Tris pH 7.5, 50 mM NaCl, 1 mM DTT, 0.01% Triton X-100; 25°C; one-site binding model; Kd the average of three independent measurements
- test_context: both partners purified
Square brackets hold non-standard residues; d marks the D form. Ends that are not written are not given here. Arg(Me2s) = CN=C(NC)NCCC[C@H](N)C(=O)O
quantity_measured: Kd (µM)
Answers are plain numbers, in µM.

input: Indicate its recorded Kd; the binder in question is TG[Arg(Me2s)]ARARARGRARGQE (also: fluorescein label, position not given here, N-terminal GAR motif stretch of PIWIL1, R4 symmetrically dimethylated; also called symmetrical dimethylated peptide of the PIWIL1 protein; source: synthetic peptide (Tufts University Core Services)) [PIWIL1-R4me2s]
output: 46
